System: A549
Test: Cytotoxicity against human A549 cells after 3 hrs by MTS assay
Assay type: cell-based
Details: A549, 3 h
For each of the compounds below, state its pIC50.
Give only the number. pIC50 is defined as minus log10 of concentration in molar units.

[in] May I ask what pIC50 has been recorded for CCCCCc1cc[n+](CCCCCCCCCCCC[n+]2ccc(CCCCC)c(CCCCC)c2)cc1CCCCC ?
[out] 4.35

[in] May I ask what pIC50 has been recorded for CC(C)(C)CCc1cc[n+](CCCCCCCCCCCC[n+]2ccc(CCC(C)(C)C)cc2)cc1 ?
[out] 3.98

----------
Tested on: Candida albicans
Test: Antifungal activity against Candida albicans ATCC 10231 after 48 to 72 hrs by broth microdilution method
Assay type: functional
Conditions: Candida albicans, ATCC 10231; read-out: MIC
RECORDED METRIC: MIC (µM)
Provide only the numeric value, understood in µM.

[in] May I ask what MIC has been recorded for CCCCCc1ccc[n+](CCCCCCCCCCCC[n+]2cccc(CCCCC)c2)c1 ?
[out] 5.5

[in] May I ask what MIC has been recorded for CCCCCc1cc[n+](CCCCCCCCCCCC[n+]2ccc(CCCCC)c(CCCCC)c2)cc1CCCCC ?
[out] 2.7

[in] May I ask what MIC has been recorded for CCCCCCCCc1cc[n+](CCCCCCCCCCCC[n+]2ccc(CCCCCCCC)cc2)cc1 ?
[out] 2.7

[in] May I ask what MIC has been recorded for CCc1ccc[n+](CCCCCCCCCCCC[n+]2cccc(CC)c2)c1 ?
[out] 44

[in] May I ask what MIC has been recorded for CCCCC(CCCC)c1cc[n+](CCCCCCCCCCCC[n+]2ccc(C(CCCC)CCCC)c(C)c2)cc1C ?
[out] 2.7

[in] May I ask what MIC has been recorded for c1cc[n+](CCCCCCCCCCCC[n+]2ccccc2)cc1 ?
[out] 44

[in] May I ask what MIC has been recorded for C[C@@H]1[C@H](O)[C@@H](C)/C=C/C=C/C=C/C=C/C=C/C=C/C=C/[C@H](O[C@@H]2O[C@H](C)[C@@H](O)[C@H](N)[C@@H]2O)C[C@@H]2O[C@](O)(C[C@@H](O)C[C@@H](O)[C@H](O)CC[C@@H](O)C[C@@H](O)CC(=O)O[C@H]1C)C[C@H](O)[C@H]2C(=O)O ?
[out] 0.54

----------
Tested on: A549
Test: Cytotoxicity against human A549 cells after 3 hrs by MTS assay
Type: cell-based
Settings: A549, 3 h
pIC50: −log10 of the molar value.
RECORDED METRIC: pIC50

[in] May I ask what pIC50 has been recorded for CCCCCc1cccc[n+]1CCCCCCCCCCCC[n+]1ccccc1CCCCC ?
[out] < 3.46

[in] May I ask what pIC50 has been recorded for Cc1cc[n+](CCCCCCCCCCCC[n+]2ccc(C)cc2)cc1 ?
[out] < 3.46

[in] May I ask what pIC50 has been recorded for CCc1cc[n+](CCCCCCCCCCCC[n+]2ccc(CC)cc2)cc1 ?
[out] < 3.46

Origin of measurements: ChEMBL document CHEMBL1152529
